# Run Description: Protein binding in rat plasma
# Format: ADME, cell-free
# Condition Info: read-out: PPB (converted)

{"columns": ["Smiles", "fraction unbound"],
 "data": [
  ["CCOc1c2c(c(OCC)c3ccccc13)C(=O)N(c1ccc(CC(=O)O)c(F)c1)C2", 0.002]
]}

* * *

# Target: Prostaglandin D2 receptor (Homo sapiens, UniProt Q13258)
# Sequence (Q13258 whole entry): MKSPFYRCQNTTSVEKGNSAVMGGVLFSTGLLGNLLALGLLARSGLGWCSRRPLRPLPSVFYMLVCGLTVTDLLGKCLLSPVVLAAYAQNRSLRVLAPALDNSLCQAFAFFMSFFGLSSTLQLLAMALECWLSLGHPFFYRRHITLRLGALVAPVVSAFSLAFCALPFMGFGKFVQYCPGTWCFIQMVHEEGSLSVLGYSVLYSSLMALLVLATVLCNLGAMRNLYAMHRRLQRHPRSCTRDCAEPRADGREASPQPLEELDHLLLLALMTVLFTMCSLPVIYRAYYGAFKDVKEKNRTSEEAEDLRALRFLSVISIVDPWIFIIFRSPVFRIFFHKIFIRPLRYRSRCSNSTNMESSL
# Run Description: Activity at DP1 receptor (unknown origin)
pIC50: −log10 of the molar value.

{"columns": ["Smiles", "pIC50"],
 "data": [
  ["CCOc1c2c(c(OCC)c3ccccc13)C(=O)N(c1ccc(CC(=O)O)c(F)c1)C2", "< 4.50"]
]}

* * *

# Target: Cytochrome P450 3A4 (Homo sapiens)
# Sequence (P08684 whole entry): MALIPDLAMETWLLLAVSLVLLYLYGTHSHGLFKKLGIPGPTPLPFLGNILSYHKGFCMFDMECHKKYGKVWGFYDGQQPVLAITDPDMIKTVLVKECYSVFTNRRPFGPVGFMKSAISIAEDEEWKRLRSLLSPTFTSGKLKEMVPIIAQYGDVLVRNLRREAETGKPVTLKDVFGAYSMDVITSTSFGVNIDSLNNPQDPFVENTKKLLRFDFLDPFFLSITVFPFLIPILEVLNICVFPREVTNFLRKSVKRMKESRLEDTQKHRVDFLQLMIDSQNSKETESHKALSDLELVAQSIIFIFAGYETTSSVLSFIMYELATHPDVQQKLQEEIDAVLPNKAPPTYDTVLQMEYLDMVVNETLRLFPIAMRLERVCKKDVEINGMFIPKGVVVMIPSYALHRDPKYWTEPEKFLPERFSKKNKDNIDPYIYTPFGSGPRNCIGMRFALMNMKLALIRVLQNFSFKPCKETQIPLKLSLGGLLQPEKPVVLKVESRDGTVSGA
# Run Description: Inhibition of human recombinant CYP3A4 using DEF substrate
# Format: ADME
pIC50: −log10 of the molar value.

{"columns": ["Smiles", "pIC50"],
 "data": [
  ["CCOc1c2c(c(OCC)c3ccccc13)C(=O)N(c1ccc(CC(=O)O)cc1)C2=O", "< 4.00"]
]}

* * *

Below: a set of entries, each annotated with reported half-life.
# Run Description: Half life in rat at 1 mg/kg, po
# Assay type: ADME, organism-based
# Condition Info: in vivo
Assay Readout: half-life

{"columns": ["Smiles", "Value Reported"],
 "data": [
  ["CCOc1c2c(c(OCC)c3ccccc13)C(=O)N(c1ccc(CC(=O)O)c(F)c1)C2", "6 h"],
  ["CCOc1c2c(c(OCC)c3cc(C)ccc13)C(=O)N(c1ccc(CC(=O)O)cc1)C2=O", "31.7 h"],
  ["CCOc1c2c(c(OCC)c3ccccc13)C(=O)N(c1ccc(CC(=O)O)cc1)C2=O", "19.9 h"],
  ["CCOc1c2c(c(OCC)c3ccccc13)C(=O)N(c1ccc(CC(=O)O)cc1)C2", "8.5 h"]
]}

* * *

# Run Description: Oral bioavailability in dog
# Assay type: ADME, organism-based, Canis lupus familiaris
# Condition Info: in vivo
Assay Readout: bioavailability (%)

{"columns": ["Smiles", "Assay Readout", "Unit", "Value Reported"],
 "data": [
  ["CCOc1c2c(c(OCC)c3ccccc13)C(=O)N(c1ccc(CC(=O)O)c(F)c1)C2", "bioavailability", "%", 69]
]}

* * *

# Target: Cytochrome P450 3A4 (Homo sapiens)
# Run Description: Inhibition of human recombinant CYP3A4 using 7BQ substrate
# Format: ADME

{"columns": ["Smiles", "IC50"],
 "data": [
  ["CCOc1c2c(c(OCC)c3ccccc13)C(=O)N(c1ccc(CC(=O)O)cc1)C2=O", "> 100 µM"]
]}
